tested on: Hepatotoxicity; experiment: FDA HLAED, serum glutamic pyruvic transaminase (SGPT) increase; conditions: human
Each entry below lists one item and its recorded SGPT Increase - Index Value value.

- Molecule: "C[C@]12CC[C@@H]3c4ccc(OC(=O)Cc5ccc(N(CCCl)CCCl)cc5)cc4CC[C@H]3[C@@H]1CC[C@@H]2OC(=O)Cc1ccc(N(CCCl)CCCl)cc1"
  System name: "Hepatotoxicity"
  SGPT Increase - Index Value: 0
- Molecule: "COC(=O)C1=C(C)NC(C)=C(C(=O)OCCN(C)Cc2ccccc2)C1c1cccc([N+](=O)[O-])c1 (centres undefined)"
  System name: "Hepatotoxicity"
  SGPT Increase - Index Value: 2.5
- Molecule: "COc1cc([C@@H]2c3cc4c(cc3[C@@H](O[C@@H]3O[C@@H]5CO[C@@H](c6cccs6)O[C@H]5[C@H](O)[C@H]3O)[C@H]3COC(=O)[C@H]23)OCO4)cc(OC)c1O [TENIPOSIDE]"
  System name: "Hepatotoxicity"
  SGPT Increase - Index Value: 0
- Molecule: "C#CCN(C)[C@H](C)Cc1ccccc1"
  System name: "Hepatotoxicity"
  SGPT Increase - Index Value: 1.5

---

Each entry below lists one item and its recorded SGPT Increase - Index Value value.
test system: Hepatotoxicity; experiment: FDA HLAED, serum glutamic pyruvic transaminase (SGPT) increase; conditions: human
Observed property: SGPT Increase - Index Value

- Molecule: "CC(CCc1ccc(O)cc1)NCCc1ccc(O)c(O)c1 (stereo not drawn)"
  Observed property: "SGPT Increase - Index Value"
  Value measured: 0
- Molecule: "Cc1c(OCC(F)(F)F)ccnc1C[S+]([O-])c1nc2ccccc2[nH]1 (stereo not drawn)"
  Observed property: "SGPT Increase - Index Value"
  Value measured: 1.2
- Molecule: "CCCNCC(O)COc1ccccc1C(=O)CCc1ccccc1 (stereo not drawn)"
  Observed property: "SGPT Increase - Index Value"
  Value measured: 4.7
- Molecule: "C[C@@H]1CN([C@H]2CC[C@](C#N)(c3ccc(F)cc3)CC2)CC[C@]1(C(=O)O)c1ccccc1"
  Observed property: "SGPT Increase - Index Value"
  Value measured: 0
- Molecule: "O=C1c2c(O)ccc(O)c2C(=O)c2c(NCCNCCO)ccc(NCCNCCO)c21"
  Observed property: "SGPT Increase - Index Value"
  Value measured: 4.5
- Molecule: "O=[N+]([O-])O[C@@H]1CO[C@H]2[C@@H]1OC[C@@H]2O [ISOSORBIDE MONONITRATE]"
  Observed property: "SGPT Increase - Index Value"
  Value measured: 0.5
- Molecule: "COC1=CC(=O)C[C@@H](C)[C@]12Oc1c(Cl)c(OC)cc(OC)c1C2=O"
  Observed property: "SGPT Increase - Index Value"
  Value measured: 6.9
- Molecule: "CCC(=O)[C@@]1(C)[C@H](C)C[C@H]2[C@@H]3CCC4=CC(=O)C=C[C@]4(C)[C@H]3[C@@H](O)C[C@@]21C [RIMEXOLONE]"
  Observed property: "SGPT Increase - Index Value"
  Value measured: 0

---

system: Hepatotoxicity; assay: FDA HLAED, alkaline phosphatase increase; conditions: human
Observed property: Alkaline Phosphatase Increase - Activity Score

- Molecule: "c1ccc([C@H]2CN3CCSC3=N2)cc1 [LEVAMISOLE]"
  Value measured: "Active"
- Molecule: "COc1ccc(-c2ccc3cc(C(=O)O)ccc3c2)cc1C12CC3CC(CC(C3)C1)C2"
  Value measured: "Inactive"
- Molecule: "Cc1ncc([N+](=O)[O-])n1CCO [METRONIDAZOLE]"
  Value measured: "Active"
- Molecule: "C=C1/C(=C\\C=C2/CCC[C@]3(C)[C@@H]([C@H](C)CCCC(C)(C)O)CC[C@@H]23)C[C@@H](O)C[C@@H]1O [CALCITRIOL]"
  Value measured: "Inactive"
- Molecule: "CC(C)NCC(O)COc1ccc(CC(N)=O)cc1 (stereo not given) [ATENOLOL]"
  Value measured: "Inactive"

---

test system: Hepatotoxicity; experiment: FDA HLAED, serum glutamic oxaloacetic transaminase (SGOT) increase; details: human

- Compound: "NCCNCCNCCN"
  SGOT Increase - Number of Reports: "< 4"
- Compound: "CC1=C(CC(=O)O)c2cc(F)ccc2/C1=C\\c1ccc([S+](C)[O-])cc1 (stereo not given)"
  SGOT Increase - Number of Reports: "< 4"
- Compound: "C[C@]12CC[C@@H]3c4ccc(OC(=O)c5ccccc5)cc4CC[C@H]3[C@@H]1CC[C@@H]2O [ESTRADIOL BENZOATE]"
  SGOT Increase - Number of Reports: ">= 4"
- Compound: "CC(=O)N(CC(O)CO)c1c(I)c(C(=O)NCC(O)CO)c(I)c(C(=O)NCC(O)CO)c1I (stereo not given) [IOHEXOL]"
  SGOT Increase - Number of Reports: "< 4"
- Compound: "O=c1[nH]c2ccccc2n1C1CCN(CCCC(c2ccc(F)cc2)c2ccc(F)cc2)CC1 [PIMOZIDE]"
  SGOT Increase - Number of Reports: "< 4"
- Compound: "Nc1nc(/C(=C/CC(=O)O)C(=O)N[C@@H]2C(=O)N3C(C(=O)O)=CCS[C@H]23)cs1"
  SGOT Increase - Number of Reports: "< 4"
- Compound: "CCC1=C(C)CN(C(=O)NCCc2ccc(S(=O)(=O)NC(=O)N[C@H]3CC[C@H](C)CC3)cc2)C1=O [GLIMEPIRIDE]"
  SGOT Increase - Number of Reports: "< 4"
- Compound: "N=C(N)NC(=O)Cc1c(Cl)cccc1Cl"
  SGOT Increase - Number of Reports: ">= 4"
- Compound: "NNCCc1ccccc1"
  SGOT Increase - Number of Reports: ">= 4"
- Compound: "CN1CC[C@]23c4c5ccc(O)c4O[C@H]2C(=O)CC[C@H]3[C@H]1C5 [HYDROMORPHONE]"
  SGOT Increase - Number of Reports: "< 4"
- Compound: "CC(C)NCC(O)COc1ccc(COCCOC(C)C)cc1 (stereo not given)"
  SGOT Increase - Number of Reports: "< 4"
- Compound: "COC(=O)C1=C(C)NC(C)=C(C(=O)OC)C1c1ccccc1[N+](=O)[O-]"
  SGOT Increase - Number of Reports: ">= 4"
- Compound: "CC(C)(C)NCC(O)c1ccc(O)c(CO)c1 (stereo not given)"
  SGOT Increase - Number of Reports: "< 4"
- Compound: "COc1ccc([C@@H]2Sc3ccccc3N(CCN(C)C)C(=O)[C@@H]2OC(C)=O)cc1"
  SGOT Increase - Number of Reports: ">= 4"
- Compound: "CC(C)N1CCN(c2ccc(OCC3COC(Cn4cncn4)(c4ccc(Cl)cc4Cl)O3)cc2)CC1 (stereo not given)"
  SGOT Increase - Number of Reports: "< 4"
- Compound: "NCCCC[C@H](N[C@@H](CCc1ccccc1)C(=O)O)C(=O)N1CCC[C@H]1C(=O)O [LISINOPRIL ANHYDROUS]"
  SGOT Increase - Number of Reports: ">= 4"
- Compound: "O=c1[nH]c(=O)n([C@H]2C[C@H](O)[C@@H](CO)O2)cc1C(F)(F)F"
  SGOT Increase - Number of Reports: "< 4"
- Compound: "Nc1cc(-c2ccncc2)c[nH]c1=O"
  SGOT Increase - Number of Reports: "< 4"
- Compound: "CO[C@H]1/C=C/O[C@@]2(C)Oc3c(C)c(O)c4c(c3C2=O)C2=NC3(CCN(CC(C)C)CC3)NC2=C(NC(=O)/C(C)=C\\C=C\\[C@H](C)[C@H](O)[C@@H](C)[C@@H](O)[C@@H](C)[C@H](OC(C)=O)[C@@H]1C)C4=O"
  SGOT Increase - Number of Reports: ">= 4"
- Compound: "Cc1nc2n(c(=O)c1CCN1CCC(c3noc4cc(F)ccc34)CC1)CCCC2"
  SGOT Increase - Number of Reports: ">= 4"
- Compound: "C[C@H](CCC(=O)O)[C@H]1CC[C@H]2[C@@H]3[C@@H](O)C[C@@H]4C[C@H](O)CC[C@]4(C)[C@H]3CC[C@]12C"
  SGOT Increase - Number of Reports: ">= 4"
- Compound: "O=c1n(CCCN2CCN(c3cccc(Cl)c3)CC2)nc2ccccn12"
  SGOT Increase - Number of Reports: "< 4"
- Compound: "CN1CCC[C@H]1c1cccnc1"
  SGOT Increase - Number of Reports: "< 4"
- Compound: "C#C[C@]1(O)CC[C@H]2[C@@H]3CCC4=CC(=O)CC[C@@H]4[C@H]3CC[C@@]21CC"
  SGOT Increase - Number of Reports: ">= 4"
- Compound: "CN(C)CCCN1c2ccccc2CCc2ccc(Cl)cc21"
  SGOT Increase - Number of Reports: "< 4"
- Compound: "C[C@]12CC[C@@H]3c4ccc(O)cc4CC[C@H]3[C@@H]1CC[C@@H]2O"
  SGOT Increase - Number of Reports: ">= 4"
- Compound: "Brc1c(NC2=NCCN2)ccc2nccnc12"
  SGOT Increase - Number of Reports: "< 4"
- Compound: "Cc1cc(C2CCCCC2)n(O)c(=O)c1"
  SGOT Increase - Number of Reports: "< 4"
- Compound: "COC(=O)CCc1ccc(OCC(O)CNC(C)C)cc1 (stereo not given)"
  SGOT Increase - Number of Reports: "< 4"
- Compound: "NC(=O)c1ncn([C@@H]2O[C@H](CO)[C@@H](O)[C@H]2O)n1"
  SGOT Increase - Number of Reports: "< 4"
- Compound: "CCCCCc1cc(O)c2c(c1)OC(C)(C)[C@@H]1CCC(C)=C[C@@H]21"
  SGOT Increase - Number of Reports: "< 4"
- Compound: "CCn1nc(C(=O)O)c(=O)c2cc3c(cc21)OCO3"
  SGOT Increase - Number of Reports: ">= 4"
- Compound: "C[C@H]1C[C@H]2[C@@H]3CCC4=CC(=O)C=C[C@]4(C)[C@@]3(F)[C@@H](O)C[C@]2(C)[C@@]1(O)C(=O)CCl"
  SGOT Increase - Number of Reports: "< 4"
- Compound: "CC(NCCc1ccc(O)cc1)C(O)c1ccc(O)cc1 (stereo not given)"
  SGOT Increase - Number of Reports: ">= 4"
- Compound: "CN(C)c1ccc(O)c2c1C[C@H]1C[C@H]3[C@H](N(C)C)C(O)=C(C(N)=O)C(=O)[C@@]3(O)C(O)=C1C2=O"
  SGOT Increase - Number of Reports: ">= 4"
